biological target: UniProtKB P00752; type: biochemical, Pig; settings: TABLE 4, CHA substrates; So = 0.54; pH 7.9; 37° C., 10 minutes; 1.0 BAEE-U/ml
Sequence (P00752 8-246): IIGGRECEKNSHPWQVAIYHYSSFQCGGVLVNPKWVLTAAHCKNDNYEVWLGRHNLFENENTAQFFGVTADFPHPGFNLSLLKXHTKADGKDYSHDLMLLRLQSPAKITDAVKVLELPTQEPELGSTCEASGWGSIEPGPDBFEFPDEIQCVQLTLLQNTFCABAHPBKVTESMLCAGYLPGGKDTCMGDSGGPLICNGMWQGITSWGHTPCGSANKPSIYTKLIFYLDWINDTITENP
measure-name: Selectivity KL, absorbance (O.D.) at 645 nm

{"columns": ["molecule", "reading"],
 "data": [
  ["NCCCC[C@@H](N)C(=O)N[C@@H](Cc1ccccc1)C(=O)N[C@@H](CCCCN)C(=O)Nc1ccc(O)c(C(=O)O)c1", "0.004 O.D."],
  ["CC(C)C[C@H](NC(=O)[C@H](N)C(C)C)C(=O)N[C@@H](CCCCN)C(=O)Nc1ccc(O)c(C(=O)O)c1", "0.002 O.D."],
  ["Cc1ccc(S(=O)(=O)Oc2ccc(C[C@@H](N)C(=O)N[C@@H](Cc3ccccc3)C(=O)N[C@@H](CCCCN)C(=O)Nc3ccc(O)c(C(=O)O)c3)cc2)cc1 [NPC-11, HD-Tyr(Tos)PheLysCHA.2HCl]", "0.012 O.D."]
]}
